Target: T1, human latent myostatin (human, UniProt O14793 25-266; O14793 267-375)
T1 construct: non-covalent complex of two propeptides and the mature homodimer; also called human myostatin latent form
T1 sequence 1: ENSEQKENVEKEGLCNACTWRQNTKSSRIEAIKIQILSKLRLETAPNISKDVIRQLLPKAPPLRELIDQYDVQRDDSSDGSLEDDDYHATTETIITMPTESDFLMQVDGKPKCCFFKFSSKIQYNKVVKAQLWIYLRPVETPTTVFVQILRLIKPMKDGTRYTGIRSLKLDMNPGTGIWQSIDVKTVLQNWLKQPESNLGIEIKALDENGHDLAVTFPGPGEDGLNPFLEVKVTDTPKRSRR
T1 sequence 2: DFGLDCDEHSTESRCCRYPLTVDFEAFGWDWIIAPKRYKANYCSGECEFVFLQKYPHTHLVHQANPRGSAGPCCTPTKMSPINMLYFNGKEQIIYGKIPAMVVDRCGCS
Experiment: SPR avidity condition pH5.8 37C; pH 5.8
Would you please tag the item class 1 when its koff is 0.005 s⁻¹ or above, and class 0 when it is below?

Previously resolved entries follow.
{"columns": ["binder", "label"],
 "data": [
  ["MS_M103205H781-SG1/M103202L813-SK1 (antibody, human IgG1, kappa, V domains shown, also called MS1032LO03-SG1) VH: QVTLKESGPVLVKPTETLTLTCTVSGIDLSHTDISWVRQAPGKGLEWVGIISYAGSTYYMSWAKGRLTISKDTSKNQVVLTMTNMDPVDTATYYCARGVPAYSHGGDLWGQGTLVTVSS VL: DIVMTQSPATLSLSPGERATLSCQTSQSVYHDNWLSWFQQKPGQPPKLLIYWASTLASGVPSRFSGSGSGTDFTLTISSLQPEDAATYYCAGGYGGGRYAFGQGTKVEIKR", "class 1"],
  ["MS_M103205H000-SG1/M103202L000-SK1 (antibody, human IgG1, kappa, V domains shown, humanized; also called MS1032LO00-SG1; Ab001) VH: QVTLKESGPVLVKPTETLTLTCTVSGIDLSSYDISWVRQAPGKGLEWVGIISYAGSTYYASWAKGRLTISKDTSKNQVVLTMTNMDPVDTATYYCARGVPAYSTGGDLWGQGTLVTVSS VL: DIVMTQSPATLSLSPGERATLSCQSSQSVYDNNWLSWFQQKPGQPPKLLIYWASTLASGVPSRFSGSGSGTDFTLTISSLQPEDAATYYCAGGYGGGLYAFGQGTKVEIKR", "class 0"],
  ["MS_M103205H707-SG1/M103202L802-SK1 (antibody, human IgG1, kappa, V domains shown, also called MS1032LO04-SG1) VH: QVTLKESGPVLVKPTETLTLTCTVSGIDLSHYDISWVRQAPGKGLEWVGIISYAGSTYYASWAKGRLTISKDTSKNQVVLTMTNMDPVDTATYYCARGVPAYSHGGDLWGQGTLVTVSS VL: DIVMTQSPATLSLSPGERATLSCTSSQSVYHDNWLSWFQQKPGQPPKLLIYWASTLAYGVPSRFSGSGSGTDFTLTISSLQPEDAATYYCAGGYGGGLYAFGQGTKVEIKR", "class 1"],
  ["MS_M103205H714-SG1/M103202L861-SK1 (antibody, human IgG1, kappa, V domains shown, also called MS1032LO01-SG1) VH: QVTLKESGPVLVKPTETLTLTCTVSGIDLSHTDISWVRQAPGKGLEWVGIISYAGSTYYASWAKGRLTISKDTSKNQVVLTMTNMDPVDTATYYCARGVPAYSHGGDLWGQGTLVTVSS VL: DIVMTQSPATLSLSPGERATLSCTSSQSVYHNNWLSWFQQKPGQPPKLLIYWASTLAYGVPSRFSGSGSGTDFTLTISSLQPEDAATYYCAGGYGGGRYAFGQGTKVEIKR", "class 1"]
]}

Let us examine a further case.
Kindly determine if koff recorded for MS_M103205H781-SG1/M103202L719-SK1 (antibody, human IgG1, kappa, V domains shown, also called MS1032LO02-SG1) VH: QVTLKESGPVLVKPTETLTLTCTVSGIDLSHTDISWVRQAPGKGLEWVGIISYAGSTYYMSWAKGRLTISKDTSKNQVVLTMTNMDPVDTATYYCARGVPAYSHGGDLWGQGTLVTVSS VL: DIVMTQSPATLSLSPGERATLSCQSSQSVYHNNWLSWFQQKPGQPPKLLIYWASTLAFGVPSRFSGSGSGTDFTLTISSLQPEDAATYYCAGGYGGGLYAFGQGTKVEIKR is above or exactly 0.005 s⁻¹.
class 1

Where do the numbers come from? From patent EP4755449A2.
